Measured values drawn from patent US20240100065A1 for this set.

Experiment Summary: CSF concentration, CSF-to-unbound plasma concentration ratio (Part 1b)
Type: in vivo, healthy adult participants (human)
Experimental Conditions: human, CSF / unbound plasma, oral, Part 1b single dose fed, [T1H-T3H]; read-out: CSF-to-unbound Plasma concentration ratio, mean

| Compound | Kp |
| --- | --- |
| CC(C)(C(=O)N1CCOc2c(C#N)cncc2C1)C(F)F [Compound 1] | 0.84 |

---

Experiment Summary: Plasma pharmacokinetics after single and repeated oral doses
Type: in vivo, healthy adult participants (human)
Experimental Conditions: human, plasma, oral, 15 mg, Part 2 Day 1, 15 mg BID, tau 12 hours; read-out: AUCtau, mean ± SD
Measured Endpoint: AUC

| Molecule | Result Value |
| --- | --- |
| CC(C)(C(=O)N1CCOc2c(C#N)cncc2C1)C(F)F [Compound 1] | 1150 ng·h/mL |
